# SYSTEM: T1, HCV Core1-169 (HCV-1, UniProt P26664 1-169)
# T1 construct: also called recombinant HCV core antigen
# T1 sequence: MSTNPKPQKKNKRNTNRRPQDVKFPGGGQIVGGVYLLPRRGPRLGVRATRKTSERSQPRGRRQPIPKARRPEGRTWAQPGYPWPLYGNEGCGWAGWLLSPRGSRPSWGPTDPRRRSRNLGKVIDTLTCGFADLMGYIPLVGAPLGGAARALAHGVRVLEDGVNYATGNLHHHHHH
# ASSAY_SUMMARY: EIA, core1-169 captured by mAb 14-153-229; note: test concentration or dose not given here
RECORDED_ENDPOINT: OD (A492) (OD)
Only the number, expressed in OD, is required.

Worked examples, 2 binders total:
HCV 208B-793 (antibody, V domains shown) VH: EVKLVESGGGLVQPGGSLKLSCAASGFTFSSYAMSWVRQTPERRLEWVTYISNGGGSTYYSDTVKGRFTFSRDNAKNTLYLQMSSLKSEDTAMYYCARHGLGRTGFASWGQGTLVTVSA VL: DIVMTQSHKFMSTSVGDRVSITCKASQDVGTAVAWYQQKPGQSPKLLIYWASTRHTGVPDRFTGSGSGTDFTLTISNVQSEDLADYFCQQYSNYLTFGAGTKLEVKR | 0.17
HCV 208B-822 (antibody, V domains shown) VH: QVQLKQSGPGLVQPSQSLSITCTVSGFSLITYGVHWVRQSPGKGLEWLGVIWGGGSTGYNAAFVSRLNITKDNSKSQVFFKMNSLQPDDTAIYYCARNGGATVFDYWGQGTTLTVSS VL: DIVMTQSPATLSVTPGDRVSLSCRASQTISDYLHWYQQKSHESPRLLIKYASQSISGIPSRFSGSGSGSHFTLSINSVEPEDVGVYYCQNGHSFPWTFGGGTKLEIKR | 0.12

Moving on to another binder below.
Query block: GET /values?readout=OD (A492)&item= HCV 208A-126 (antibody, V domains shown) VH: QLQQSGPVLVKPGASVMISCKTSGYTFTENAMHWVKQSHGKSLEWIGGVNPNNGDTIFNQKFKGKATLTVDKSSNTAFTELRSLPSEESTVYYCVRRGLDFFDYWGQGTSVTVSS VL: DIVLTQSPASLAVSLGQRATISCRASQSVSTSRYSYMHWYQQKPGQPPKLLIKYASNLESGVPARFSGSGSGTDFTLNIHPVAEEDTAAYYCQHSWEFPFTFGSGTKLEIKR
Result block: 1.2
